Exercise: state measured Bliss excess for each of the molecules provided.
test system: HTC-C3 (Thyroid Gland Carcinoma); assay: Bliss excess, mean over the matrix (fraction); higher = more synergy;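 further: after 72 h of two-drug dosing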

Use these answered entries as a reference point.
Molecule	Bliss excess
CCN(CCO)CCCOc1ccc2c(Nc3cc(CC(=O)Nc4cccc(F)c4)[nH]n3)ncnc2c1 [AZD2811] + C[C@@H]1COCCN1C2=NC(=NC(=C2)C3(CC3)[S@](=N)(=O)C)C4=C5C=CNC5=NC=C4 [AZD6738] (first compound max 1 µM, 7x7, partner max 10 µM)	-0.0273
COc1cccc(OCCCN)c1-c1cc(Nc2cnc(C#N)cn2)n[nH]1 [Prexasertib] + Cc1cc2ncnn2cc1Nc1ncc2c(n1)n(C1CCOCC1)c(=O)n2C [AZD7648] (first compound max 1 µM, 7x7, partner max 10 µM)	-0.018
Cc1c2c(nn1C)CSCc1cc(n(C)n1)CSc1cc(c3ccccc3c1)OCCCc1c(C(=O)O)n(C)c3c-2c(Cl)ccc13 [AZD5991] + Cn1cnc2c(F)c(Nc3ccc(Br)cc3Cl)c(C(=O)NOCCO)cc21 [Selumetinib] (first compound max 1 µM, 7x7, partner max 3 µM)	-0.0271
COc1nnc2ccc(N3CCC(c4ccc(OCCN5CCN(C)C(=O)[C@H]5C)cc4)CC3)nn12 [AZD5153] + C[C@@H]1COCCN1C2=NC(=NC(=C2)C3(CC3)[S@](=N)(=O)C)C4=C5C=CNC5=NC=C4 [AZD6738] (first compound max 1 µM, 7x7, partner max 10 µM)	-0.0187
CS(=O)(=O)CCNCc1ccc(-c2ccc3ncnc(Nc4ccc(OCc5cccc(F)c5)c(Cl)c4)c3c2)o1 [Lapatinib] + C[C@@H](Oc1cc(-c2cnn(C3CCNCC3)c2)cnc1N)c1c(Cl)ccc(F)c1Cl [Crizotinib] (first compound max 10 µM, 7x7, partner max 10 µM)	0.0215

# return Bliss excess for each item in the list
1. COc1cccc(OCCCN)c1-c1cc(Nc2cnc(C#N)cn2)n[nH]1 [Prexasertib] + O=C(c1cc(Cc2n[nH]c(=O)c3ccccc23)ccc1F)N1CCN(C(=O)C2CC2)CC1 [Olaparib] (first compound max 1 µM, 7x7, partner max 10 µM)
2. Cc1c2c(nn1C)CSCc1cc(n(C)n1)CSc1cc(c3ccccc3c1)OCCCc1c(C(=O)O)n(C)c3c-2c(Cl)ccc13 [AZD5991] + Cc1cc2ncnn2cc1Nc1ncc2c(n1)n(C1CCOCC1)c(=O)n2C [AZD7648] (first compound max 1 µM, 7x7, partner max 10 µM)

Output:
1: -0.0615; 2: -0.0558
